From: PubChem BioAssay (NCI)

Experiment: NCI Yeast Anticancer Drug Screen. Data for the cln2 rad14 strain (AID 165);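 note: 0% = growth equal to vehicle treated cultures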
Settings: S. cerevisiae cln2 rad14 strain, at 5.0 µM (retest, dose inferred, filed as 0.5), stronger effect = higher value
Description: Growth inhibition of yeast strains with defined genetic alterations is measured as a screen for potential anti-cancer activity. Selected strains with alterations in DNA damage repair or cell cycle control were exposed to compounds and growth inhibition was measured relative to vehicle treated controls. The strain used in this assay is cln2 rad14
This is part of a sample that, as a whole, favours compounds with a hit. Of some 79,000 tested, about 15% had one in any assay.
As shown below, each of these compounds has a reported growth inhibition value.
Return type: number; implicit unit %.

These recorded examples may help you get a feel for the data.
O=C(NNC(=O)OCC(Cl)(Cl)Cl)OCC(Cl)(Cl)Cl; 4
N#Cc1ccccc1C(Cl)(Cl)Cl; 38
O=C(CI)NCc1ccccc1; 12
Nc1nc(N)c(-c2ccc(Cl)c(Cl)c2)c(CCc2ccc(CNC(=O)c3ccc(S(=O)(=O)F)cc3)cc2)n1; -14

# return recorded growth inhibition for input [Cl][Hg][Cl].c1cnccn1 80

----------
As shown below, each of these compounds has a reported growth inhibition value.
Experiment: NCI Yeast Anticancer Drug Screen. Data for the cln2 rad14 strain (AID 165);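 note: 0% = growth equal to vehicle treated cultures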
Details: S. cerevisiae cln2 rad14 strain, at 50.0 µM, stronger effect = higher value
Method: Growth inhibition of yeast strains with defined genetic alterations is measured as a screen for potential anti-cancer activity. Selected strains with alterations in DNA damage repair or cell cycle control were exposed to compounds and growth inhibition was measured relative to vehicle treated controls. The strain used in this assay is cln2 rad14
About 79,000 compounds went through this panel and 15% of them were active in at least one assay; those are over-represented in the sample as a whole.
Return type: number; implicit unit %.

C=C(C)C(=O)OC1CCC2(C)C(CCC3C2CCC2(C)C(c4ccc(=O)oc4)CC4OC432)C1 (configuration not stated); 60.2
[Cl][Hg][Cl].c1cnccn1; 93.2
CC(C)=CC1CC(C)C2(CCC3(C)CC4C(C(=O)CC4(C)O)/C(C=O)=C\CC32)O1 (configuration not stated); 93.6
CCOC(=O)C1CC12c1ccccc1-c1ccccc12 (configuration not stated); 19.8
CCOP(=O)(OCC)/C(C#N)=C/c1cccc(Cl)c1; 88.2

# return recorded growth inhibition for input c1ccc2c(NCCCCCCCCNc3c4ccccc4nc4ccccc34)c3ccccc3nc2c1 46.7

# return recorded growth inhibition for input COc1cc(N(CCCl)CCCl)ccc1C=Nc1cccc(Cl)c1 81.6

# return recorded growth inhibition for input CCOc1cc(/C=C/[N+](=O)[O-])ccc1O 55

# return recorded growth inhibition for input NC(N)=N/N=C1\C(=O)N(c2ccc(Cl)cc2)C(=O)C1C(=O)Nc1ccc(Cl)cc1 (configuration not stated) -8.8

# return recorded growth inhibition for input OC1CCCC2CCC[N-]C12.OC1CCCC2CCC[N-]C12.[O]=[V][OH] (configuration not stated) 79.8

# return recorded growth inhibition for input COc1ccc2c3c(c4cc(OC)c(OC)cc4c2c1)C[C@H]1CCCCN1C3 92.5

# return recorded growth inhibition for input O=[N+]([O-])/C=C/c1cc2c(cc1Br)OCO2 94.2

----------
experiment: NCI Yeast Anticancer Drug Screen. Data for the sgs1 strain (AID 173);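 note: 0% = growth of vehicle-only control cultures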; settings: S. cerevisiae sgs1 mutant, at 11.0 µM
This is part of a sample that, as a whole, favours compounds with a hit. Of some 79,000 tested, about 15% had one in any assay. The source made the active and inactive calls. Rule as the data show it: active = growth inhibition above about 70%; inactive = the rest.
Thanks in advance; please answer with one of these: T = active, F = inactive

Reference set (4 entries):
O=C1c2ccccc2C(=O)C(Cl)C1Cl (stereo unspecified); T
CC[C@@]1(O)C(=O)OCc2c1cc1n(c2=O)Cc2cc3ccccc3nc2-1; T
[O-][n+]1c2cccc(O)c2[n+]([O-])c2cccc(O)c21; F
CC[C@](O)(C(=O)O)c1cc2n(c(=O)c1CO)Cc1cc3ccccc3nc1-2; T

Call for entry CC(Cc1ccccc1)N(C)Cc1nc(C2CCC([N+](=O)[O-])O2)no1 (stereo unspecified) : F

Call for entry O=[N+]([O-])c1cc(S(=O)(=O)F)ccc1Cl : F
